biological target: Biotinylated wild type SARS-CoV-2 receptor binding domain (RBD) antigen (SARS-CoV-2, Wuhan isolate (wild type), UniProt P0DTC2 319-541)
observed_property: Kd (nM)
State just the number; it will be interpreted in nM.

Consider the reported Kd for these binders:
{"binder": "THSC20.HVTR39 (antibody, V domains shown) V domain 1: QVQLQESGPGLVRPSETLSLTCIVSGGSINSRSYSWGWIRQPPGKGLEWIGNVYYSGTTYYNPSLKSRVTISVDTSKNQFSLNLSSVTAADTAVYYCARNLFYYDRSGSSHHDAFDIWGQGTMVTVSS V domain 2: HGYVRPLSVAPGQTARITCGGNNIGSKSVHWYQQKPGQAPVLVVYGDGDRPSGIPERFSGSNSGNTATLTISRVEAGDEADYYCQVWDRGSDVWVFG", "Kd [nM]": 0.513}
{"binder": "THSC20.HVTR04 (antibody, V domains shown) VH: QVQLVESGGGVVQPGRSLRLSCAASGFTFSNYAIHWVRQAPGKGLEWVAVVSYDGSNKYYAESVKGRFTISRDNSKNTLSLQMISLRPEDTAVYYCASVADTAMVPEWYFDLWGRGTLVTVSS VL: QSVLTQPRSVSGSPGQSVTISCTGTSSDVGAYNYVSWYQQHPGKAPKLMIYDVSARPSGVPDRFSGSKSGNTASLTISGLQAEDEADYYCCSYAGSWVFGGGTKLTVL", "Kd [nM]": 0.196}
{"binder": "THSC20.HVTR06 (antibody, V domains shown) VH: QLQLVQSGSELKKPGASVKVSCKASGYTFTKYTVNWVRQAPGQGLEWMGWINTNTGNPTSAQGFTGRFVFSLDTSVSTAYLHISSLKTEDTAVYYCARVLGDQQVVGGDDYYYYYAMDVWGQGTPVTVSS VL: SYELTQPPSVSVSPGQTASITCSGDKLGDKYASWYQQKPGQSPVLVIYQDTKRPSGIPERFSGSNSGNTATLTITGTQAMDETDYYCQAWDNSGWVFGGGTKLTVL", "Kd [nM]": 0.635}

The record that follows has no Kd shown yet.
Asked: Look up Kd: THSC20.HVTR26 (antibody, V domains shown) VH: EVQLVESGGGLVQPGGSLRLSCAASGFTVSSNYMSWVRQAPGKGLEWVSAIYSGDSTYYADSVKGRFTISRHNPKNTLYLQMNSLRAEDTAVYYCARLVGALTNIVVSGDGGAFDIWGQGTMVTVSS VL: SYELTQPASVSGSPGQSITISCTGTSSDVGSYNLVSWYQQHPGKAPKLMIYEVSKRPSGVSNRFSGSKSGNTASLTISGLQAEDEVDYYCCSYAGSSTWVFGGGTKLTVL
Given back: 0.255
